Reference source for all entries: patent US20190309034A1

# Soluble trimeric huBAFF (50 pM) Neutralization IC50 annotations
# Target or system: Recombinant soluble trimeric human BAFF (furin-cleaved human BAFF 134-285) (human, UniProt Q9Y275 134-285)
# Protocol: cell-based or functional assay
Readout: Soluble trimeric huBAFF (50 pM) Neutralization IC50

Binder	Recorded value
1094C4E6 (antibody, V domains shown) VH: EVQLQQSGAELVRPGASVKLSCTASGFNIKDDYMHWVKQTPEQGLEWIGRIDPAYGNGKYVPKFQDKATITADTSSNTAYLQLSSLTSEDTAVYYCARRYYAVSSVDYALDYWGQGTSVTVSS VL: DIVMTQSHKFMSTSVGDRVTITCKASQDVATAVAWYQQKPGQSPKLLIYWASTRHTGVPDRFTGSGSGTDFTLTISNVQSEDLANYFCQQYSNYPYTFGGGTTLEIK	384 pM
348A6C1 (antibody, V domains shown) VH: QVTLRESGPGILQPSQTLSLTCSFSGFSLRTFGMGVGWIRQPSGKGLEWLAHIWWNDEKYYNPALKSRLTVSKDSSENQVFLKIANVDTTDTAPYYCARLGPSITTVAEGFPYWGQGTLVTVSA VL: DIVMTQSQKFMSTTVGDRVSITCKASQNVGAAVAWYQQKPGQPPKLLIRSASNRYIGVPDRFTGSGSGTDFTLTVSDVQSVDLADYFCQQYSNYPLTFGAGTKLELTR	110 pM
441E6F2 (antibody, V domains shown) VH: RVQLKESGPGLVAPSQSLFITCTVSGFSLTTYEINWVRQSPGKGLEWLGVIWTGGTTKYNSAFISRLSITKDNSKSLVFLKMSSLQTDDTAIYYCVREGRRYYAMDYWGQGTSVTVSS VL: NIVLTQSPASLAVSLGQRATISCRTSESVDSYGNSFMFWFQQKPGQAPKLLIFLTSNLESGVPARFSGSGSRTDFTLTIDPVEADDAATYYCQQSNEDPRTFGGGTKLEIK	43 pM
418F6D9 (antibody, V domains shown) VH: QVQLQQSGPELVKPGASVKLSCKASGYTFTDYSIHWVKQSPGQGLEWIGWIYPGSGNTKYNDKFKGKATMTADKSSRTVYMQLSSLTSEESAVYFCARDYRRYYAIDYWGQGTSVTVSS VL: IVLTQSSASLAVSLGQRATISCRASESVDSYGNSLMHWYQQKPGQPPKLLIYIASNLESGVPARFSGSGSRTDFTLTIDPVEADDAATYYCQQNSEDPRTFGGGTKLEIK	38 pM
436H6A9 (antibody, V domains shown) VH: QLQQSGPELVKPGASVKISCKASGYTFTDNFINWVKQRPGQGLEWIGWISPGSGNTKNNEKFKGKATVTVDTSSSTAYMQLSSLTSEDSAVYFCARGIIYYYDGTYPYALDYWGQGTSVTVSS VL: DIVLTQSPASLGVSLGQRATISCRATKGVTKSGYSYIHWYQQKPGQPPKLLIYLASNLQSGVPARFSGSGSGTDFTLNIHPVEEEDAATYYCQHSRELPLTFGAGTKLELK	26 pM
27I21-3C7 (antibody, V domains shown) VH: QVQLQQSGPELVRPGTSVKISCKAPGYIFTSHWMQWVRQRPGQGLEWIGDIFPGSGTTDYNEKFKDKATVTVDRSSSSAYMQFNSLTSEDSAVYFCASGAFDYWGQGTTLTVSS VL: DIQMTQSPSSLSASLGERVSLTCRASQDIGNRLNWLQQAPDGTIKRLIYATSSLDSGVPKRFSGSRSGSDYSLTISSLESEDFVDYYCLQYASYPFTFGTGTKLEIK	55 pM
551H4D6 (antibody, V domains shown) VH: EVQLQQSGAELVRPGASVELSCTASGFNIKNDYLHWVKQRPEQGLEWIGWIDSANDKTKYAPKFQDKATITADPSSNTAYLQLSSLTSEDTAVYYCTRVGVQDGYYVRDFDYWGQGTTLTVSS VL: DIVLTQSPASLAVSLGQRATMSCRASESVDSYGNSFIHWYQQKPGQPPRLLIYRASNLNSGIPARFSGSGSRTDFTLTISSVEADDVATYYCHQNNEDPRTFGGGTKLEIK	110 pM
344B9D9 (antibody, V domains shown) VH: EFQLQQSGPELGEPGASVKISCKASGFSFSDYNINWVKQSNGKSLEWIGKVHPKDGTATYNQKFQDKATLTLDQSSSTAYMQLSSLTSEDSAVYYCLPLYYDSLTKILFAYWGQGTLVTVSA VL: DIQMTQSPASLSASVGETVTITCRASGNIHNYLAWYQQKQGKSPQLLVYSAITLADGVPSRFSGSGSETQFSLKINSLQPEDFGIYYCQHFWNTPYTFGGGTKLEIK	102 pM
363D4A10 (antibody, V domains shown) VH: QVTLKESGPGILQSSQTLSLTCSFSGFSLKTFGMGVGWIRQPSGKGLEWLAHIWWNDDKFYHPALKSRLTISKDTSKNQVFLKIANVDTAETATYYCVRIGPSITTVAEGFAYWGQGTLVTVSA VL: DIVMTQSQKFMSTTVGDRVTITCKASQNVGSAVVWYQQKPGQSPILLIFSASNRYTGVPDRITGSGSGAEFTLTISSVQSEDLAEYFCQQYSSYPLTFGAGTKLELK	21 pM
381A6A9 (antibody, V domains shown) VH: QVQLQQSGPELVKPGGSVKISCKAAGYSLTSYYIHWVKQRPGQGLEWIGLIFPGSGNSKYIEKFKGKATLTADTSSNTAYMQLSSLTSEDSAVYYCTRGDFGNYLAYWYFDVWGTGTTVTVSS VL: DIKMTQSPSSIYASLGERVTITCKASQDINSYLSWFQQKPGKSPKTLMYRANRLVDGVPSRFSGSGSGQDYSLTISSLEYEDMGNYYCLQYDEFPYTFGGGAKLEIK	44 pM
